Assay method text: protein stability index of a GFP-peptide fusion (yeast GPS) (PSI 1-4); higher = more stable; sorted into four equal gates, so the index is relative within each strain
Condition summary: san1∆
Binary call on protein stability index: Y from 3 upward, N beneath that.

Previously resolved entries follow.
DKYHEQWIKFLLHTLYL [SSN8] | N
PILAPSVKDYRPAEETE [RPS3] | Y
TTESSDLKEGLQDLSRY [GRR1] | Y

Could you please find out whether QIEGPFLIIVPKSTLDN [ISW2] has protein stability index that meets 3 or exceeds it?
N

Could you please find out whether PNTRDAESEAITVTAKQ [SWI3] has protein stability index that meets 3 or exceeds it?
Y

Could you please find out whether LRDYTTVPRIVQLLSKS [RPN2] has protein stability index that meets 3 or exceeds it?
N
